Sourced from paper PMC4949396

Test: plasma pharmacokinetics on day 5 after multiple oral doses of apremilast in healthy male subjects
Type: in vivo, human
Details: male, human, oral; apremilast 50 mg b.i.d., day 5, plasma; read-out: tmax, median (minimum–maximum)
assay_readout: Tmax (h)

INSERT INTO results (molecule, result_number) VALUES
  ('CCOc1cc([C@@H](CS(C)(=O)=O)N2C(=O)c3cccc(NC(C)=O)c3C2=O)ccc1OC [apremilast]', 2);

---

Assay: plasma pharmacokinetics on day 5 after multiple oral doses of apremilast in healthy male subjects
Format: in vivo, human
Conditions: male, human, oral; apremilast 30 mg b.i.d., day 5, plasma; read-out: tmax, median (minimum–maximum)
assay_readout: Tmax (h)

INSERT INTO results (molecule, assay_readout, result_number) VALUES
  ('CCOc1cc([C@@H](CS(C)(=O)=O)N2C(=O)c3cccc(NC(C)=O)c3C2=O)ccc1OC [apremilast]', 'Tmax', 2);
